Biological target: hQC (Homo sapiens)
Sequence (Q16769 29-361): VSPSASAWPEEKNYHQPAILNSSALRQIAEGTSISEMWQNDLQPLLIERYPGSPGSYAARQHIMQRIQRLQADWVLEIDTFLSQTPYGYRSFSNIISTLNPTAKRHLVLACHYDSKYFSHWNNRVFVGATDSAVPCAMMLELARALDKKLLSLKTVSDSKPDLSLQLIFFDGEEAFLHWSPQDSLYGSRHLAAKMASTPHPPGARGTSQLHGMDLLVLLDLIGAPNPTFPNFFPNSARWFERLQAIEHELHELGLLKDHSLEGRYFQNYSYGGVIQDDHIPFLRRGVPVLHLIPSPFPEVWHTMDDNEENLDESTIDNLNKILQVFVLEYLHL
Experiment: Fluorometric assay of glutaminyl cyclase (QC) inhibition, H-Gln-βNA or H-Gln-AMC substrate
Type: biochemical
Conditions: read-out: IC50
pIC50: −log10 of the molar value.
PROPERTY LABEL: pIC50

// solved cases for pIC50 follow
{"MOLECULE": "O=C1N/C(=N\\C2CCCCC2)C(c2ccccc2F)N1CCCn1ccnc1 (centres unmarked)", "QUANTITATIVE READOUT": 5.07}
{"MOLECULE": "O=C1N/C(=N\\C2CCCCC2)C(c2cc(Br)cs2)N1c1ccc2[nH]cnc2c1 (centres unmarked)", "QUANTITATIVE READOUT": 5.89}
{"MOLECULE": "CC1=CC(C)C(C2/C(=N/C3CCc4ccccc43)NC(=S)N2c2ccc3[nH]cnc3c2)CC1 (centres unmarked)", "QUANTITATIVE READOUT": 5.12}

P: O=C1N/C(=N/Cc2cccnc2)C(c2cc(F)cc(F)c2)N1CCCn1ccnc1 (centres unmarked)
Q: CN(C)c1ccc(C2/C(=N\Cn3nnc4ccccc43)NC(=S)N2c2ccc3[nH]cnc3c2)cc1 (centres unmarked)
R: CSc1ccc(C2/C(=N\Cn3nnc4ccccc43)NC(=S)N2c2ccc3[nH]cnc3c2)cc1 (centres unmarked)
S: O=C1N/C(=N\C(c2ccccc2)c2ccccc2)C(c2cc(F)cc(F)c2)N1CCCn1ccnc1 (centres unmarked)
# input Order the records, beginning with the lowest pIC50 and ending with the highest. The labels, placed in the requested order, form the answer.
# output P, S, Q, R
